conditions: [M+2Na-H]+; instrument: DT; stepped-field
quantityKind: collision cross section (N2) (Å²)

CC/C=C\C/C=C\C/C=C\C/C=C\C/C=C\C/C=C\CCC(=O)O[C@H](COC(=O)CCCCCCC/C=C\C/C=C\C/C=C\CC)COP(=O)(O)OC[C@H](N)C(=O)O [PS(40:09)]
284.82
CCCCC/C=C\C=C/CCCCCCCCC(=O)O[C@H](COC(=O)CCCCCCCCCCCCCCCCC)COP(=O)([O-])OCC[N+](C)(C)C [PC(36:02)]
290.39
CCCCCCCCCCCCCCCCCCCCCCCC(=O)O[C@H](COC(=O)CCCCCCCCC)COP(=O)([O-])OCC[N+](C)(C)C [PC(34:00)]
286.12
CCCCC/C=C\C/C=C\C/C=C\CCCCCCC(=O)OC[C@H](COP(=O)(O)OC[C@H](N)C(=O)O)OC(=O)CCCCCCCCC/C=C\CCCCCCCCCC [PS(42:04)]
304.19
CCCCCCCCCCCCCCCCCCCCCCC(=O)N[C@@H](COP(=O)([O-])OCC[N+](C)(C)C)[C@H](O)CCCCCCCCCCCCCCC [SM(41:00)]
301.12
CCCCC/C=C\C/C=C\CCCCCCCCCCCC(=O)O[C@H](COC(=O)CCCCCCCCCCCC)COP(=O)(O)O [PA(35:02)]
270

###

conditions: [M-H]-; instrument: DT; single field, calibrated with ESI Low Concentration Tuning Mix (Agilent)
quantityKind: collision cross section (N2) (Å²)

For orientation, consider the following solved cases.
O=c1ccn([C@@H]2O[C@H](COP(=O)(O)O)[C@@H](O)[C@H]2O)c(=O)[nH]1 [URIDINE MONOPHOSPHATE]
161.2
C[C@@H]1NC(=O)N[C@@H]1CCCCCC(=O)O [DETHIOBIOTIN]
152.5
C[C@]12CCC(=O)C=C1CC[C@@H]1[C@@H]2[C@@H](O)C[C@@]2(C)[C@H]1CC[C@]2(O)C(=O)CO [CORTISOL]
191.9

(I) NCCS(=O)(=O)O [TAURINE]
(II) O=P(O)(O)OC1C(OP(=O)(O)O)C(OP(=O)(O)O)C(OP(=O)(O)O)C(OP(=O)(O)O)C1OP(=O)(O)O (centres undefined) [PHYTATE]
Query block: For the pair I and II , which member has the lower collision cross section (N2) number? Write the label of whichever entry you select.
Result block: I
(I: 118.4 Å², II: 195.4 Å²)

(A) Nc1ccn([C@@H]2O[C@H](COP(=O)(O)OP(=O)(O)O)[C@@H](O)[C@H]2O)c(=O)n1 [CYTIDINE DIPHOSPHATE]
(B) NC(CCO)C(=O)O (centres undefined) [HOMOSERINE]
Query block: Endpoint returns the identifier whose collision cross section (N2) is numerically larger, either A or B . Write the label of whichever entry you select.
Result block: A

(A) C[C@]12C[C@H](O)[C@H]3[C@@H](CCC4=CC(=O)CC[C@@]43C)[C@@H]1CC[C@@H]2C(=O)CO [CORTICOSTERONE]
(B) Cc1ncc(CO)c(C(=O)O)c1O [4-PYRIDOXATE]
Query block: Endpoint returns the identifier whose collision cross section (N2) is numerically larger, either A or B . Write the label of whichever entry you select.
Result block: A
(A: 186.8 Å², B: 130.6 Å²)

(A) N[C@@H](CCC(=O)N[C@@H](CS)C(=O)NCC(=O)O)C(=O)O [GLUTATHIONE REDUCED]
(B) CC(C)(COP(=O)(O)OP(=O)(O)OC[C@H]1O[C@@H](n2cnc3c(N)ncnc32)[C@H](O)[C@@H]1OP(=O)(O)O)[C@@H](O)C(=O)NCCC(=O)NCCS [COENZYME A]
Query block: For the pair A and B , which member has the lower collision cross section (N2) number? Write the label of whichever entry you select.
Result block: A

(a) CCCCCCCCCCC/C=C\CCCCC(=O)[O-] [PETROSELINATE]
(b) c1ncc2[nH]cnc2n1 [PURINE]
Query block: Endpoint returns the identifier whose collision cross section (N2) is numerically larger, either a or b . Write the label of whichever entry you select.
Result block: a
(a: 175.6 Å², b: 114.3 Å²)

(1) Nc1ncnc2c1ncn2[C@H]1C[C@H](O)[C@@H](COP(=O)(O)OP(=O)(O)OP(=O)(O)O)O1 [DEOXYADENOSINE TRIPHOSPHATE]
(2) CC(O)(CC(=O)O)CC(=O)O [3-HYDROXYMETHYLGLUTARATE]
Query block: Endpoint returns the identifier whose collision cross section (N2) is numerically larger, either 1 or 2 . Write the label of whichever entry you select.
Result block: 1

(1) CC(=O)N[C@@H](CC(=O)O)C(=O)O [N-ACETYLASPARTATE]
(2) CCCCCCCC/C=C\CCCCCCCCCCCCCC(=O)[O-] [NERVONATE]
Query block: For the pair 1 and 2 , which member has the lower collision cross section (N2) number? Write the label of whichever entry you select.
Result block: 1

(I) Cc1cc2nc3c(=O)[nH]c(=O)nc-3n(C[C@H](O)[C@H](O)[C@H](O)CO)c2cc1C [RIBOFLAVIN]
(II) CC(=O)c1ccc(O)cc1O [2',4'-DIHYDROXYACETOPHENONE]
Query block: For the pair I and II , which member has the lower collision cross section (N2) number? Write the label of whichever entry you select.
Result block: II

###

settings: [M+H]+; instrument: TW; calibrated with polyalanine and drug standards
quantityKind: collision cross section (N2) (Å²)

O=C(Oc1ccccc1C(=O)O)c1ccccc1O [SALSALATE]
151.3
C[C@@](Cc1ccc(O)c(O)c1)(NN)C(=O)O
142.4
COc1cc(O)c2c(=O)cc(C)oc2c1CC=C(C)C
161.7
CN1CCOC(c2ccccc2)c2ccccc2C1 (stereo not drawn)
157.1
CC(=O)O[C@H]1C[C@@H](OC(C)=O)C(C)(C)C2CC(=O)[C@]3(C)C(CC[C@@]4(C)[C@H](C(=O)O)OC(=O)C5OC543)[C@]21C (stereo partly drawn)
212.6
CN1CCCN=C1/C=C/c1cccc(O)c1
152.6
CC(N=C(NC#N)Nc1ccncc1)C(C)(C)C (stereo not drawn)
165.2
Oc1c(I)cc(Cl)c2cccnc12
138.2
C/C=C/C(=O)N(CC)c1ccccc1C
145.1
CC(=O)OCC(CCn1cnc2cnc(N)nc21)COC(C)=O
168.4
C=CC1=C(C(=O)O)N2C(=O)[C@@H](NC(=O)/C(=N\O)c3csc(N)n3)[C@H]2SC1
190.5
CN1CCN(C2=c3ccccc3=Nc3ccc(Cl)cc3N2)CC1
177.5
CCCC1O[C@@H]2C[C@H]3[C@@H]4CCC5=CC(=O)C=C[C@]5(C)[C@H]4[C@@H](O)C[C@]3(C)[C@]2(C(=O)CO)O1 (stereo partly drawn) [BUDESONIDE]
204.6
CCCCCCc1ccc(O)cc1O
129
O[C@@H](c1cc(C(F)(F)F)nc2c(C(F)(F)F)cccc12)[C@H]1CCCCN1
181.8
CCN(CC)CCNC(=O)COc1ccc(OC)cc1 [MEFEXAMIDE]
171.2
Oc1c(Cl)cc(Cl)c2cccnc12
134.3
CC(=O)OCC1(O)CC23CCC4c5ccoc5CCC4(C)C2CCC1C3 (stereo not drawn) [CAFESTOL ACETATE]
169.3

###

settings: [M+Na-2H]-; instrument: DT; single field, calibrated with ESI Low Concentration Tuning Mix (Agilent)
quantityKind: collision cross section (N2) (Å²)

O=c1ccn([C@@H]2O[C@H](COP(=O)(O)O)[C@@H](O)[C@H]2O)c(=O)[nH]1 [URIDINE MONOPHOSPHATE]
163.6
CC(C)(COP(=O)(O)OP(=O)(O)OC[C@H]1O[C@@H](n2cnc3c(N)ncnc32)[C@H](O)[C@@H]1OP(=O)(O)O)[C@@H](O)C(=O)NCCC(=O)NCCS
246.2
CC(=O)N[C@H]1[C@H](OP(=O)(O)OP(=O)(O)OC[C@H]2O[C@@H](n3ccc(=O)[nH]c3=O)[C@H](O)[C@@H]2O)O[C@H](CO)[C@@H](O)[C@@H]1O [URIDINE DIPHOSPHATE-N-ACETYLGLUCOSAMINE]
227.9

###

details: [M+H]+; instrument: TW; calibrated with phosphatidylcholines (ESI+) and phosphatidylethanolamines (ESI-)
quantityKind: collision cross section (N2) (Å²)

CCCCCCCCCCCCCCCCCC(=O)O[C@H](CO)COP(=O)(O)OCCN [LPE(18:0)]
220.8
CCCCCCCCCCCCCCCCCCCCCC(=O)N[C@@H](CO)[C@H](O)CCCCCCCCCCCCCCC [Cer(d18:0/22:0)]
274.1
CCCCCC/C=C\CCCCCCCCCC(=O)O[C@H](CO)COP(=O)(O)OCCN [LPE(18:1)]
214.2
CC/C=C\C/C=C\C/C=C\C/C=C\C/C=C\C/C=C\CCC(=O)O[C@H](CO/C=C\CCCCCCCCCCCCCCCC)COP(=O)(O)OCCN [PE(p40:6)]
283.5
